- system tested: SARS-CoV-2 spike protein receptor binding domain (isolated RBD) (SARS-CoV-2, UniProt P0DTC2 319-541)
Assign pKd to each entry below.
One number for each entry, as −log10 of the molar value.

Some solved cases for reference:
binder | pKd
IMPI-027 (antibody, V domains shown) VH: QVQLQESGPGLVKPSQTLSLTCTVSGGSISSYGYYWNWIRQHPGKGLEWIGYIYYSGSTYYNPSLKSRVTISVDTSKNQLSLRLNSVSAADTAVYYCARDFGGNSNYFDYWGQGTLVTVSS VL: AIQLTQSPSSLSASVGDRVTITCRTSQGISSALAWYQQKPGKAPKLLIYDASSLESGVPSRFSGSGSGTDFTLTISSLQPEDFATYYCQQFNSYPLTFGGGTKVEIK | 8.39
IMPI-021 (antibody, V domains shown) VH: EVQLVESGGGLIQPGGSLRLSCAASGVTVSSNYMSWVRQAPGKGLEWVSVIYSGGSTFYADSVKGRFTISRDNSKNTLYLQMNSLRAEDTAVYYCARDLSYYGMDVWGQGTTVTVSS VL: DIQLTQSPSFLSASVGDRVTITCWASQGISSYLAWYQQKPGKAPKLLIYAASTLQSGVPSKFSGSGSGTEFTLTISSLQPEDFATYYCQQLNSYPCSFGQGTKLEIK | 8.09

Proceeding to the next binder to report its pKd.
Prompt line: Please look at this binder and report its pKd: IMPI-029 (antibody, V domains shown) VH: EVQLVESGGGLIQPGGSLRLSCAASGVTVSSNYMNWVRQAPGKGLEWVSVIYSGGSTYYADSVKGRFTISRDNSKNTLFLQMNSLRAEDSAVYYCARDLGPYGVDVWGQGTTVTVSS VL: DIQLTQSPSFLSASVGDRVTITCWASQGISSYLAWYQQKPGKAPKLLIYAASTLQSGVPSRFSGSGSGTEFTLTISSLQPEDFATYYCQELNSYPLTFGQGTRLEIK
Response line: 9.71

Source: patent US20250026813A1
